Target: BosR (rBosR) (UniProt O51592 1-176)
Assay: EMSA; 20 mM Hepes pH 7.5, 50 mM KCl, 1 mM MgCl2, 1 mM DTT, 5% glycerol, 100 ug/ml BSA, 50 ug/ml poly[d(A-T)], 30 fmol probe in 20 ul, 37 C 30 min
Details: protein: recombinant; tags: none (His6-SUMO tag removed by SUMO protease); chain copies: 2; label: digoxigenin 3' end; blunt
Observable: binding result

ZM211 (ZM156 DR mutant) (dsDNA) DNA 1: GCTGAGATCTGTCGAATCAATTACAAAAAAGTAGGCCATTCAAAAAATACTCCCCCTAAA DNA 2: TTTAGGGGGAGTATTTTTTGAATGGCCTACTTTTTTGTAATTGATTCGACAGATCTCAGC = no binding
ZM220 (ZM219 DR mutant) (dsDNA) DNA 1: AAAAAAATATGAAAATGGCCAAATAATAAGTAGTAAAATATTAATAACTGGGTATAAAAT DNA 2: ATTTTATACCCAGTTATTAATATTTTACTACTTATTATTTGGCCATTTTCATATTTTTTT = no binding
